Each recorded value in this set is attributed to paper PMC12952245.

assay: clinical; conditions: human, in vivo, 180 mg/m2
quantityMeasured: Tmax (min)
Report the value in min with no unit label.

Sure, the documented Tmax for CNCc1ccc(-c2cc(-c3nc(-c4ccc(S(=O)(=O)C(C)C)cc4)cnc3N)on2)cc1 is 39.6

###

Assay: clinical
Details: human, in vivo, 180 mg/m2
Description: Berzosertib plasma protein binding was assessed in vitro using rapid equilibrium dialysis (RED) devices (Thermo Fisher Scientific, Waltham, Massachusetts). Plasma pharmacokinetic parameters were derived from the data by noncompartmental methods with WinNonlin (Certara). Statistical analyses for pharmacokinetic parameter values were performed using SPSS 27.0 for Windows (SPSS Inc, Chicago, Illinois).
quantityMeasured: half-life (h)
Give the value, in units of h, as a plain number.

Form field half-life, entry CNCc1ccc(-c2cc(-c3nc(-c4ccc(S(=O)(=O)C(C)C)cc4)cnc3N)on2)cc1 : 16.1

###

assay: clinical; details: human, in vivo, 180 mg/m2
quantityMeasured: AUC(0-inf) (ng·h/mL)
State the answer as a number, implicitly in ng·h/mL.

The recorded AUC(0-inf) for CNCc1ccc(-c2cc(-c3nc(-c4ccc(S(=O)(=O)C(C)C)cc4)cnc3N)on2)cc1 is 8550

###

Assay: clinical
Settings: human, in vivo, 60 mg/m2
Procedure: Berzosertib plasma protein binding was assessed in vitro using rapid equilibrium dialysis (RED) devices (Thermo Fisher Scientific, Waltham, Massachusetts). Plasma pharmacokinetic parameters were derived from the data by noncompartmental methods with WinNonlin (Certara). Statistical analyses for pharmacokinetic parameter values were performed using SPSS 27.0 for Windows (SPSS Inc, Chicago, Illinois).
quantityMeasured: Cmax (ng/mL)
Write the answer as a number in ng/mL, unit excluded.

In plain terms, CNCc1ccc(-c2cc(-c3nc(-c4ccc(S(=O)(=O)C(C)C)cc4)cnc3N)on2)cc1 [berzosertib] has a documented Cmax of 343

###

assay: clinical; conditions: human, in vivo, 270 mg/m2
quantityMeasured: Cmax (ng/mL)
The reply should contain only the number, in ng/mL.

// CNCc1ccc(-c2cc(-c3nc(-c4ccc(S(=O)(=O)C(C)C)cc4)cnc3N)on2)cc1 : Cmax value = 1260

###

Experiment: clinical
Settings: human, in vivo, 270 mg/m2
Protocol: Berzosertib plasma protein binding was assessed in vitro using rapid equilibrium dialysis (RED) devices (Thermo Fisher Scientific, Waltham, Massachusetts). Plasma pharmacokinetic parameters were derived from the data by noncompartmental methods with WinNonlin (Certara). Statistical analyses for pharmacokinetic parameter values were performed using SPSS 27.0 for Windows (SPSS Inc, Chicago, Illinois).
quantityMeasured: half-life (h)
Answer with a number only, understood to be in h.

The value of half-life measured for the molecule CNCc1ccc(-c2cc(-c3nc(-c4ccc(S(=O)(=O)C(C)C)cc4)cnc3N)on2)cc1 [berzosertib] turned out to be 18.8

###

test: clinical; settings: human, in vivo, 120 mg/m2
quantityMeasured: Cmax (ng/mL)
Return type: number; implicit unit ng/mL.

compound CNCc1ccc(-c2cc(-c3nc(-c4ccc(S(=O)(=O)C(C)C)cc4)cnc3N)on2)cc1 , Cmax observed: 535

###

test: clinical; conditions: human, in vivo, 60 mg/m2
quantityMeasured: Tmax (min)
All answers are understood in min, so give the number only.

// field: Tmax; key: CNCc1ccc(-c2cc(-c3nc(-c4ccc(S(=O)(=O)C(C)C)cc4)cnc3N)on2)cc1 ; value = 27
